# melting point values compiled below

As a guide, the following entries are already answered.
c1ccc2c(Nc3ccc(Oc4ccc(Nc5ncnc6ccccc56)cc4)cc3)ncnc2c1 [Compound D281] | 124 to 125 °C
c1ccc2c(Nc3ccc(Oc4ccc(Nc5cnnc6ccccc56)cc4)cc3)cnnc2c1 [Compound D284] | 362 °C
c1ccc2c(Nc3ccc(Oc4ccc(Nc5c6ccccc6nc6ncccc56)cc4)cc3)c3cccnc3nc2c1 [Compound 254B] | 338 to 340 °C

Q: Consider the compound c1nc(Nc2ccc(Oc3ccc(Nc4ncnc5[nH]cnc45)cc3)cc2)c2nc[nH]c2n1 [Compound D276] . State its measured melting point.
Ans: 372 °C

Q: Consider the compound c1ccc2c(c1)Cc1c-2nc2ccccc2c1Nc1ccc(Oc2ccc(Nc3c4c(nc5ccccc35)-c3ccccc3C4)cc2)cc1 [Compound D275] . State its measured melting point.
Ans: 114 to 115 °C

Q: Consider the compound c1ccc2c(Nc3ccc(Oc4ccc(Nc5nccc6ccccc56)cc4)cc3)nccc2c1 [Compound D278] . State its measured melting point.
Ans: 110 to 112 °C

Q: Consider the compound c1cc(Nc2ccc(Oc3ccc(Nc4ccncc4)cc3)cc2)ccn1 [Compound 244B] . State its measured melting point.
Ans: 263 to 264 °C
